- tgt: T1, RIG-I (ΔCARDs) (human, UniProt O95786 229-925)
- T1 sequence: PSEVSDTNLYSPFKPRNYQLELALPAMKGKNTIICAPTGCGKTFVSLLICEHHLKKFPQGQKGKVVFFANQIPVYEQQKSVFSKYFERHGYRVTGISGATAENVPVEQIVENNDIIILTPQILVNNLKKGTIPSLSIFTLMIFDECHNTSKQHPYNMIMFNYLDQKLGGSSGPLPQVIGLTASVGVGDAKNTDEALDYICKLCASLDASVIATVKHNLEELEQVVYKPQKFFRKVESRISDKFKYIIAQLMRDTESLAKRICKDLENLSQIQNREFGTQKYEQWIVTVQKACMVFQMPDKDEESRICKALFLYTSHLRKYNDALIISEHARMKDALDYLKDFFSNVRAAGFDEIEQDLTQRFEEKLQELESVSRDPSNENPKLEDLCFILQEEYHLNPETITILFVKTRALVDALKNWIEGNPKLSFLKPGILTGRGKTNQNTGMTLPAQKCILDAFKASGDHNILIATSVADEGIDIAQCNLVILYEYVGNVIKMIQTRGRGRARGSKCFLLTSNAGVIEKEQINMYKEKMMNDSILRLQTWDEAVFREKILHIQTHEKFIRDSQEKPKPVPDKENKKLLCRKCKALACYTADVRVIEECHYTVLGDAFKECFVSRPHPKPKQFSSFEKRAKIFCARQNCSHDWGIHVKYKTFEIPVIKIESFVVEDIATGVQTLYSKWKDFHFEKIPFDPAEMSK
- protocol_details: EMSA
Would you kindly list Kd for each of these binders?
Give the value in nM but do not write nM after it.

Indicate its recorded Kd; the binder in question is 5'-OH 14 dsRNA (dsRNA, 5'-OH on top strand) RNA 1: ACCUCCCACCCCCG RNA 2: CGGGGGUGGGAGGU
3.6

Respond only with Kd recorded for 5'-ppp 14 dsRNA (dsRNA, 5'-triphosphate on top strand) RNA 1: ACCUCCCACCCCCG RNA 2: CGGGGGUGGGAGGU
0.041
